Tested system: Luciferin 4-monooxygenase (Photinus pyralis)
Test: qHTS profiling assay for firefly luciferase inhibitor/activator using purifed enzyme and Km concentrations of substrates (counterscreen for miR-21 project); also: nearly all actives have a fitted effect of over 55% in size
Applied conditions: purified FLuc, luminescence inhibition; series mostly up to 57.5 µM
In all, about 360,000 compounds went through this assay and about 25,000 (6.9%) were called active. Not shown: some 9% with an inconclusive outcome. Calls follow the shape of the dose curve; as a rule, active = well fitted inhibition curve with a large enough effect; inconclusive = small, poorly fitted or top-dose-only effect; inactive = flat fitted curve, though single readings scatter. What follows is part of a selection rich in actives, with near analogues and random picks from the rest.
Entry note: the call must match one of active, inactive

Record excerpt, results attached:
INSERT INTO results (smiles_record, label_class) VALUES
  ('CC1CCN(C(=O)c2ccc(CSc3ccc(Cl)cc3)cc2)CC1', 'inactive'),
  ('CC(C)CC(=O)N/C(N)=N/c1nc2ccccc2s1', 'active'),
  ('O=C(Nc1ccccc1Cl)N1CCC(CN2CCCCC2)CC1', 'inactive');

Please look at the following molecule next.
QUERY: In this assay, the call recorded for CCC(=O)NC(=Nc1nc2ccccc2s1)NC(=O)CC was what?
RESULT: active

====

Tested system: Luciferin 4-monooxygenase (Photinus pyralis)
Test: qHTS profiling assay for firefly luciferase inhibitor/activator using purifed enzyme and Km concentrations of substrates (counterscreen for miR-21 project); also: nearly all actives have a fitted effect of over 55% in size
Applied conditions: purified FLuc, luminescence inhibition; series mostly up to 57.5 µM
Hit rate of the full screen: of about 360,000 compounds, about 25,000 (6.9%) were called active. Inconclusive results (about 9%) are left out. Calls come from the whole dose curve; as a rule, active = well fitted inhibition curve with a large enough effect; inconclusive = small, poorly fitted or top-dose-only effect; inactive = flat fitted curve, though single readings scatter. The full list was thinned out, with actives kept by preference.
Assign a class; possible classes are TRUE for active, FALSE for inactive

INSERT INTO results (compound, label_class) VALUES
  ('CCC(=O)NC(=S)Nc1ccc(NC(=O)c2ccco2)c(Cl)c1', 'FALSE');

QUERY: Dear colleague, could you share the recorded outcome for Cc1ccn(CCC(=O)N2c3ccccc3CC2C)n1 (stereo not given) when you have a moment?
RESULT: FALSE

QUERY: Which result was noted for this compound in the test: N#CC(C#N)=CN=c1ccn(Cc2ccc(Cl)cc2Cl)cc1
RESULT: FALSE

QUERY: # fetch the recorded call for CCC(=O)N1c2ccc(S(=O)(=O)CCC(=O)N3CCN(c4ccccc4)CC3)cc2CC1C (stereo not given) here
RESULT: FALSE

====

Tested system: Luciferin 4-monooxygenase (Photinus pyralis) (UniProt P08659)
Sequence (P08659 whole entry, looked up): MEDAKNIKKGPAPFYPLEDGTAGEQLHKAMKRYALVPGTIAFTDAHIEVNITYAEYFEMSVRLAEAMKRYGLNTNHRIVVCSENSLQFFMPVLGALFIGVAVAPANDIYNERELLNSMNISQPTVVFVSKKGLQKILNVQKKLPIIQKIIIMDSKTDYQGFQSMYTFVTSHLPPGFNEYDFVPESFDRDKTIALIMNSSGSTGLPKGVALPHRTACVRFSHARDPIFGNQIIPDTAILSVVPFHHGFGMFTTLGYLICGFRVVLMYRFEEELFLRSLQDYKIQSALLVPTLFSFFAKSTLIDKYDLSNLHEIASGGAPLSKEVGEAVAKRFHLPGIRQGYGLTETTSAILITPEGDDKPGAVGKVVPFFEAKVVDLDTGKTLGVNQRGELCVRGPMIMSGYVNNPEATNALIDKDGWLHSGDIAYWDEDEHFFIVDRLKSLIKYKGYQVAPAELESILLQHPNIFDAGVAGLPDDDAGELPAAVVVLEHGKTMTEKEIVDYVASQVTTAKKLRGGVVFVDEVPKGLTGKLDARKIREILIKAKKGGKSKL
Test: qHTS profiling assay for firefly luciferase inhibitor/activator using purifed enzyme and Km concentrations of substrates (counterscreen for miR-21 project); also: nearly all actives have a fitted effect of over 55% in size
Applied conditions: purified FLuc, luminescence inhibition; series mostly up to 57.5 µM
The whole screen tested about 360,000 compounds, of which about 25,000 (6.9%) were called active. About 9% were inconclusive and are not listed. The call rests on the fitted dose curve; in most records, active means well fitted inhibition curve with a large enough effect; inconclusive means small, poorly fitted or top-dose-only effect; inactive means flat fitted curve, though single readings scatter. For the sample, actives were picked, then their nearest neighbours and some compounds at random.
Permitted responses: true for active, false for inactive

Examples from the recorded data:
INSERT INTO results (compound, tested_system, label_class) VALUES
  ('CCOc1ccc2nc(N3CCC(C(=O)Nc4cc(C)ccc4C)CC3)sc2c1', 'Luciferin 4-monooxygenase (Photinus pyralis) (UniProt P08659)', 'false'),
  ('O=C(OCC(=O)N1CCCC1)c1ccc(Cl)nc1', 'Luciferin 4-monooxygenase (Photinus pyralis) (UniProt P08659)', 'false'),
  ('Cc1ccc(CCNC(=O)Cn2c(-c3cccs3)cc3cc(F)ccc32)cc1', 'Luciferin 4-monooxygenase (Photinus pyralis) (UniProt P08659)', 'false');

QUERY: Assay outcome for O=C(CSc1nnc(-c2ccccc2F)o1)Nc1cccc(C(F)(F)F)c1 : what was it?
RESULT: false

QUERY: For CCOc1ccc2nc(N3CCCC(C(=O)Nc4cc(C)ccc4C)C3)sc2c1 (stereo not given) , what call appears in the results of this test?
RESULT: true

====

Tested system: Luciferin 4-monooxygenase (Photinus pyralis)
Test: qHTS profiling assay for firefly luciferase inhibitor/activator using purifed enzyme and Km concentrations of substrates (counterscreen for miR-21 project); also: nearly all actives have a fitted effect of over 55% in size
Applied conditions: purified FLuc, luminescence inhibition; series mostly up to 57.5 µM
Screen size: about 360,000 compounds; about 25,000 (6.9%) were called active. Roughly 9% stayed inconclusive and do not appear here. Calls come from the whole dose curve; as a rule, active = well fitted inhibition curve with a large enough effect; inconclusive = small, poorly fitted or top-dose-only effect; inactive = flat fitted curve, though single readings scatter. Only a selection was taken, and actives are over-represented in it overall.
Log the outcome using a class from active, inactive

QUERY: Recorded call for CCOC(=O)c1ccc(NC(=O)c2nc(SCc3ccc(F)cc3)ncc2Cl)cc1 ?
RESULT: inactive

QUERY: Tell me the recorded outcome of this test for CCCCc1nn2c(=O)cc(COC(=O)c3cccc(NC(=O)COc4ccccc4)c3)nc2s1 .
RESULT: inactive

QUERY: Please share the test call associated with O=C(OCc1cc(=O)n2nc(C3CC3)sc2n1)c1ccccc1Cl .
RESULT: active

QUERY: Record lookup: outcome of this test for Fc1ccc(Nc2nc(SCc3ccccc3Cl)nc3ccccc23)cc1 ?
RESULT: inactive

QUERY: Name the outcome recorded for CCN(CC)CCN1C(=O)C(=O)/C(=C(/O)c2cnn(-c3ccccc3)c2C)C1c1cccs1 (stereo not drawn) in the assay.
RESULT: active

QUERY: Outcome logged for CCOc1ccc(CNC(=O)C2CCN(c3nnc(-n4cccc4CNc4ccc(C)cc4)s3)CC2)cc1OC in this assay:
RESULT: inactive

QUERY: Dear colleague, could you share the recorded outcome for Cc1nn2c(=O)cc(COC(=O)c3ccccc3NC(=O)COc3ccccc3C)nc2s1 when you have a moment?
RESULT: inactive

QUERY: Lab log entry: CC(C)c1ccc(NC(=O)CN(C)S(=O)(=O)c2ccc3c(c2)c(=O)n(C)c(=O)n3C)cc1 — outcome as called in the assay?
RESULT: inactive

====

Tested system: Luciferin 4-monooxygenase (Photinus pyralis) (UniProt P08659)
Test: qHTS profiling assay for firefly luciferase inhibitor/activator using purifed enzyme and Km concentrations of substrates (counterscreen for miR-21 project); also: nearly all actives have a fitted effect of over 55% in size; also: potency is read from the fitted curve at half-maximal effect
Applied conditions: purified FLuc, luminescence inhibition; series mostly up to 57.5 µM
The whole screen tested about 360,000 compounds, of which about 25,000 (6.9%) were called active. Roughly 9% stayed inconclusive and do not appear here. This is one part of a sample in which actives are shown more often than they occur.
Outcome measure: Potency

Known Potency results, listed for orientation:
INSERT INTO measurements (compound, result) VALUES
  ('Cc1ccc(COC(=O)CN2C(=O)NC3(CCCC3)C2=O)cc1', 'inactive'),
  ('CCOc1cccc(C(=O)Nc2nnc(-c3cccs3)s2)c1', '1.51 µM (active)'),
  ('COc1cccc(OCC(=O)Nc2ccccc2C(N)=O)c1', '4.78 µM (active)'),
  ('CCc1cccc(C)c1NC(=O)COC(=O)CC1CCCC1', 'inactive'),
  ('CC(C)c1ccc(Nc2nnc(SCC(=O)c3nnc(-c4ccccc4)o3)s2)cc1', '10.7 µM (active)');

Please give Potency for each item listed below.
1. CCOc1cccc2cc(C(=O)OCC(=O)Nc3c(C)cccc3CC)c(=O)oc12
2. C=CCC(NC(=O)Cc1ccccc1)C(=O)NCCC (stereo unspecified)
3. COC(=O)c1c(NC(=O)c2ccc(Cl)c(Cl)c2)sc2c1CCCC2
4. Cc1cccc(OCC(=O)NCCCNC(=O)c2ccccn2)c1
5. COc1ccc([C@H]2CC(=O)C=C(c3ccc(CO)cc3)C2)cc1

RESULT:
["15.1 µM (active)", "inactive", "inactive", "inactive", "inactive"]

Please report Potency for every entry that follows.
1. Cc1cccc(C)c1NC(=O)CNC(=O)C1CCCC1
2. COc1cc(OC)c(OC)cc1/C=C/c1nc2ccccc2c(=O)n1-c1ccc(Br)c(C)c1

RESULT:
1: inactive; 2: inactive

Batch of 5 compounds: report Potency for each.
1. Cc1cccc(N2CCN(S(=O)(=O)c3ccc4[nH]c5c(c4c3)CCCCC5)CC2)c1C
2. COc1ccc(CNC(=O)CSc2nc3ccccc3nc2Cc2ccccc2)cc1
3. Cc1oc(-c2ccccc2)nc1Cn1c(SCc2cccc(C(F)(F)F)c2)nc2cccnc21
4. Cc1cccc(OCCC(=O)Nc2ccccc2C(N)=O)c1
5. COc1ccc(C2CC(c3ccc(C)cc3)Nc3ncnn32)cc1 (stereo unspecified)

RESULT:
1. inactive
2. inactive
3. inactive
4. inactive
5. inactive

Batch lookup, Potency per entry.
1. Cc1ccc(C)n1-c1nnc(N2CCC(C(=O)NCc3ccc(F)cc3)CC2)s1
2. CCCn1c(N)c(C(=O)CSc2nnc3n2CCCCC3)c(=O)[nH]c1=O
3. COc1ccc(N2C(=O)CSC23C(=O)N(Cc2cccc(F)c2)c2ccccc23)cc1Cl (stereo unspecified)
4. Nc1nc(COC(=O)CCC(=O)c2ccc(Cl)cc2)nc(Nc2ccccc2)n1

RESULT:
1. inactive
2. inactive
3. inactive
4. inactive

====

Tested system: Luciferin 4-monooxygenase (Photinus pyralis) (UniProt P08659)
Test: qHTS profiling assay for firefly luciferase inhibitor/activator using purifed enzyme and Km concentrations of substrates (counterscreen for miR-21 project); also: nearly all actives have a fitted effect of over 55% in size; also: potency is read from the fitted curve at half-maximal effect
Applied conditions: purified FLuc, luminescence inhibition; series mostly up to 57.5 µM
About 25,000 (6.9%) of roughly 360,000 compounds were called active. About 9% were inconclusive and are not listed. The entries come from a sample that favours actives as a whole.
Outcome measure: Potency

Record excerpt, results attached:
INSERT INTO measurements (smiles_record, outcome_measure, result) VALUES
  ('CC(=O)c1c(C)[nH]c(C(=O)OCC(=O)Nc2c(C)n(C)n(-c3ccccc3)c2=O)c1C', 'Potency', 'inactive'),
  ('COc1ccc(CSc2nnnn2-c2ccc(C(=O)O)cc2)cc1', 'Potency', 'inactive'),
  ('CN(C)CCCN(C(=O)c1ccc(S(=O)(=O)N2CCCc3ccccc32)cc1)c1nc2ccc(F)cc2s1', 'Potency', 'inactive'),
  ('O=C(Cn1cnc([N+](=O)[O-])n1)NCCc1ccccc1', 'Potency', 'inactive'),
  ('Cn1c(=O)c2c(nc(SCC(=O)Nc3ccc(F)cc3)n2Cc2ccccc2)n(C)c1=O', 'Potency', 'inactive');

Your task in this section: give Potency for each listed record.
1. O=C(Nc1ccn(Cc2ccccc2)n1)c1n[nH]c([N+](=O)[O-])c1Cl
2. CCCCCn1c(=O)[nH]c2cc(C(=O)Nc3ccc(F)cc3)ccc2c1=O
3. COc1cc(NC(=O)Cn2nc(-c3ccc(C)c(C)c3)ccc2=O)cc(OC)c1
4. O=[N+]([O-])c1cc(-c2nc(-c3ccccc3)no2)ccc1NCc1ccco1

RESULT:
0.849 µM (active)
inactive
inactive
inactive

Take each entry in turn and give its Potency.
1. CC(C)n1c(=O)[nH]c2cc(C(=O)Nc3ccccc3)ccc21
2. CC(C)c1ccc(NC(=O)c2ccc3c(O)c(S(=O)(=O)c4ccccc4)c(=O)[nH]c3c2)cc1

RESULT:
1: inactive; 2: 1.51 µM (active)

Provide Potency values for the following items, in order.
1. O=C1/C(=C\Nc2ccccc2)CCN1c1ncccn1
2. COc1ccccc1N1CCN(/N=C\C(Br)=C\c2ccccc2)CC1

RESULT:
1: 23.9 µM (active); 2: 16.9 µM (active)

Need Potency for each of these molecules.
1. CCOc1ccccc1NC(=O)Cn1nnc(C(=O)Nc2ccc(C)c(C)c2)c1N
2. O=C(Nc1ccccc1N1CCN(c2ccccc2)CC1)c1cccc(F)c1

RESULT:
["inactive", "inactive"]

QUERY: Look up Potency: O=C(Nc1ccccc1C(=O)N1CCCCC1)c1ccco1
RESULT: inactive

Data credit: PubChem BioAssay AID588342
